Each record here notes measured pIC50.
# experimental target: PCSK9Δhelix (Homo sapiens, UniProt Q8NBP7)
# Construct: Human PCSK9 construct M1-Q692 with an engineered TEV site (residue deletion Y166, R167); made in house; host or cells: CHO
# Sequence (Q8NBP7 with tags, fused parts or gaps limits assumed): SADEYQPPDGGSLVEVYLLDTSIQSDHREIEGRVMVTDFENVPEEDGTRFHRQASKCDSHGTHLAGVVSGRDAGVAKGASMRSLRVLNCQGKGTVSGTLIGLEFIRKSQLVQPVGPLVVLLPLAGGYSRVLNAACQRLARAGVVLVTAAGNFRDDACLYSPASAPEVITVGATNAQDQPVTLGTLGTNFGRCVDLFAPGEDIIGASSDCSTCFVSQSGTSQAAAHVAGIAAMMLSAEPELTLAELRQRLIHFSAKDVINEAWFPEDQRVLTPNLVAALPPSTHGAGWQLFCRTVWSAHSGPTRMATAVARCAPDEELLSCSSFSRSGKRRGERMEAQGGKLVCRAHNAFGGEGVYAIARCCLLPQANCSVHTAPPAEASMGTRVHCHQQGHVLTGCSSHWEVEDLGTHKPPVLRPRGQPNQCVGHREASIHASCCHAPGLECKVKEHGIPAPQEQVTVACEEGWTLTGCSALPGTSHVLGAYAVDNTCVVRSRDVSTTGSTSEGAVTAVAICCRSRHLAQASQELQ
# Sequence (Q8NBP7 31-152 partner limits assumed): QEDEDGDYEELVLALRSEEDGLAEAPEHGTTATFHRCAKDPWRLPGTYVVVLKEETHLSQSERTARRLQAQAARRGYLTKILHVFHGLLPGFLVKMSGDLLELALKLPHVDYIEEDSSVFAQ
# protocol notes: PCSK9Δhelix/Ab20 TR-FRET binding assay
# protocol conditions: TR-FRET, Example 7; read-out: PCSK9Δhelix/Ab20 IC50
pIC50: −log10 of the molar value.

INSERT INTO assay_data (substance, quantity_name, assay_value) VALUES
  ('Ac-DLMPWNAVRIGLLR-NH2 [Compound 61]', 'pIC50', '< 4.31');

Prompt line: For the substance Ac-DLMPWNLVRI-NH2 [Compound 49] , what pIC50 is on record?
Response line: ≤ 4.31

Prompt line: For the substance Ac-DLMPWNLVAIGLLR-NH2 [Compound 59] , what pIC50 is on record?
Response line: < 4.31
